Provenance of the data: patent US12448388B2

Attribute: bioavailability
- ASSAY_METHOD_TEXT: PK data (IV/PO) in cynomolgus monkey
- SETTINGS: in vivo, PO 0.5 mg/Kg
READOUT_TYPE: bioavailability (%)

1. Nc1nc2cc(F)c(C(=O)N3CCC[C@@H]4Oc5cc(C(F)(F)F)ccc5[C@@H]43)cc2n2cncc12
108
2. Nc1nc2cnc(C(=O)N3CCC[C@@H]4Oc5cc(C(F)(F)F)cc(F)c5[C@@H]43)cc2n2cncc12 (single isomer, unassigned)
84
3. C[C@H]1CN(C(=O)c2cc3c(cc2F)nc(N)c2cncn23)[C@H]2c3ccc(C(F)(F)F)cc3C[C@H]2O1 (single isomer, unassigned)
123

====

- ASSAY_METHOD_TEXT: PBS solubility (kinetic solubility from DMSO stocks)
- Format: physicochemical
- SETTINGS: 22 °C, aqueous buffer, kinetic from dmso stock; 1x PBS pH 7.4, 1.0% DMSO, 24-hour incubation at ambient temperature
Attribute: solubility at 24 h
READOUT_TYPE: solubility at 24 h

1. Cc1ncc2c(N)nc3cnc(C(=O)N4CCC[C@@H]5Oc6cc(OC(F)(F)F)ccc6[C@@H]54)cc3n12
< 1 µM
2. Cc1ncc2c(N)nc3cnc(C(=O)N4CCC[C@@H]5Oc6cc(OC(F)(F)F)cc(F)c6[C@@H]54)cc3n12
< 1 µM
3. Nc1nc2ccc(C(=O)N3CCC[C@@H]4Oc5cc(OC(F)(F)F)cc(F)c5[C@@H]43)cc2n2cncc12
2.5 µM
4. Nc1nc2cc(F)c(C(=O)N3CCC[C@@H]4Oc5cc(C(F)(F)F)ncc5[C@@H]43)cc2n2cncc12
54.7 µM
5. C[C@H]1CN(C(=O)c2cc3c(cc2F)nc(N)c2cncn23)[C@H]2c3cc(F)c(C(F)F)cc3C[C@H]2O1 (single isomer, unassigned)
9.9 µM

====

- System: HCT116 MTAP-deleted cell lines
- ASSAY_METHOD_TEXT: Cell viability assay (CellTiter-Glo, 7 days), HCT116 MTAP-deleted
- Type: cell-based
- SETTINGS: Homo sapiens, HCT-116; cell viability assay, HCT116 MTAP-deleted; class symbols; read-out: CC50
Attribute: CC50
READOUT_TYPE: CC50

1. Nc1nc2cc(F)c(C(=O)N3CCCCC4Oc5cc(C(F)(F)F)ccc5C43)cc2n2cncc12 (stereo not shown)
< 100 nM
2. Nc1nc2cc(F)c(C(=O)N3CCO[C@@H]4CCc5ccccc5[C@@H]43)cc2n2cncc12 (relative stereo)
100 to 1000 nM
3. CN(C(=O)c1cc2c(cc1F)nc(N)c1cncn12)[C@@H]1COc2cc(C#CC3(F)COC3)ccc21
< 100 nM
4. Nc1nc2cc(F)c(C(=O)N3CCC[C@H]4Oc5cc(OC(F)(F)F)ccc5[C@H]43)cc2n2cncc12 (single isomer, unassigned)
100 to 1000 nM
5. CN(C(=O)c1cc2c(cc1F)nc(N)c1cncn12)[C@@H]1COc2c1ccc(OC(F)F)c2F
< 100 nM
6. Nc1nc2cc(F)c(C(=O)N3CCC[C@@H]4Oc5cc(C(F)(F)F)ccc5[C@@H]43)cc2n2c(Br)ncc12 (single isomer, unassigned)
100 to 1000 nM
7. CN(C(=O)c1ccc2nc(N)n3cncc3c2c1)[C@@H]1COc2cc(C(F)(F)F)ccc21
> 1000 nM
